test system: P. berghei (ANKA GFP-luc); test: In vitro P. berghei liver-stage assay in HepG2 cells; format: cell-based; conditions: Plasmodium berghei, 48 hour incubation, read-out: IC50 exo-erythrocytic stage P. berghei

- query.smiles: "COc1ccc2c3c([nH]c2c1)[C@H](CO)N(C(C)=O)CC31CCN(C(=O)Nc2ccccc2F)CC1"
  IC50 [µM]: 0.459

* * *

test system: P. falciparum 3D7; test: In vitro P. falciparum blood-stage assay, strain 3D7; assay type: cell-based; conditions: Plasmodium falciparum

- molecule: "COc1ccc2c3c([nH]c2c1)[C@H](CO)N(C(C)=O)CC31CCN(C(=O)Nc2ccccc2F)CC1 [Compound 15]"
  tested.on: "P. falciparum 3D7"
  IC50 (nM): 65

* * *

test system: P. falciparum V1/3; assay: In vitro P. falciparum blood-stage assay, strain V1/3; format: cell-based; conditions: Plasmodium falciparum

- compound: "COc1ccc2c3c([nH]c2c1)[C@H](CO)N(C(C)=O)CC31CCN(C(=O)Nc2ccccc2F)CC1 [Compound 15]"
  tested.on: "P. falciparum V1/3"
  IC50 (nM): 98

* * *

tested on: P. cynomolgi; test: In vitro P. cynomolgi liver stage assay in primary rhesus monkey hepatocytes; format: cell-based; conditions: Plasmodium cynomolgi, Hepatocyte, in Macaca mulatta; small parasites (hypnozoites, s.f.); read-out: IC50 exo-erythrocytic stage P. cynomolgi (s.f)
pIC50: −log10 of the molar value.

- compound: "COc1ccc2c3c([nH]c2c1)[C@H](CO)N(C(C)=O)CC31CCN(C(=O)Nc2ccccc2F)CC1 [Compound 15]"
  pIC50: 6.46

* * *

System: P. falciparum TM90C2B
Test: In vitro P. falciparum blood-stage assay, strain TM90C2B
Type: cell-based
Conditions: Plasmodium falciparum
Procedure: Strains of Plasmodium falciparum (Dd2, 3D7, D6, K1, NF54, V1/3, HB3, 7G8, FCB, TM90C2B) were obtained from Malaria Research and Reference Reagent Resource Center (MR4). […] Parasitemia was determined by checking at least 500 red blood cells from a Giemsa-stained blood smear. […] The assay plates were read with 505 dichroic mirrors with 485-nm excitation and 530-nm emission settings.

- query.smiles: "COc1ccc2c3c([nH]c2c1)[C@H](CO)N(C(C)=O)CC31CCN(C(=O)Nc2ccccc2F)CC1"
  units.label: "nM"
  IC50: 104

* * *

system: P. falciparum 3D7 gametocytes; test: P. falciparum gametocyte viability assay; format: cell-based; details: Plasmodium falciparum, 72 hours, Cell-titer glo, read-out: IC50 erythocytic stage (P. falciparum) sexual (IV & V)
result.type: IC50 (µM)

- query.smiles: "COc1ccc2c3c([nH]c2c1)[C@H](CO)N(C(C)=O)CC31CCN(C(=O)Nc2ccccc2F)CC1"
  tested.on: "P. falciparum 3D7 gametocytes"
  units.label: "µM"
  reported: 0.643

* * *

test system: P. cynomolgi; experiment: In vitro P. cynomolgi liver stage assay in primary rhesus monkey hepatocytes; type: cell-based; details: Plasmodium cynomolgi, Hepatocyte, in Macaca mulatta; large schizonts (l.f.); read-out: IC50 exo-erythrocytic stage P. cynomolgi (l.f)

- query.smiles: "COc1ccc2c3c([nH]c2c1)[C@H](CO)N(C(C)=O)CC31CCN(C(=O)Nc2ccccc2F)CC1"
  IC50: "832 nM"

* * *

tested on: P. falciparum asexual erythocytic stage; experiment: Erythrocytic stage, asexual (P. falciparum); assay type: cell-based; conditions: Plasmodium falciparum
pIC50: −log10 of the molar value.

- query.smiles: "COc1ccc2c3c([nH]c2c1)[C@H](CO)N(C(C)=O)CC31CCN(C(=O)Nc2ccccc2F)CC1"
  pIC50: 7.19
